Would you mind telling me the reported pIC50 of each entry?
# subjectOfTest: human transporter OAT3 (Homo sapiens, UniProt Q8TCC7)
# Construct: expressed in transfected cells; host or cells: MDCK-II
# Sequence (Q8TCC7 whole entry): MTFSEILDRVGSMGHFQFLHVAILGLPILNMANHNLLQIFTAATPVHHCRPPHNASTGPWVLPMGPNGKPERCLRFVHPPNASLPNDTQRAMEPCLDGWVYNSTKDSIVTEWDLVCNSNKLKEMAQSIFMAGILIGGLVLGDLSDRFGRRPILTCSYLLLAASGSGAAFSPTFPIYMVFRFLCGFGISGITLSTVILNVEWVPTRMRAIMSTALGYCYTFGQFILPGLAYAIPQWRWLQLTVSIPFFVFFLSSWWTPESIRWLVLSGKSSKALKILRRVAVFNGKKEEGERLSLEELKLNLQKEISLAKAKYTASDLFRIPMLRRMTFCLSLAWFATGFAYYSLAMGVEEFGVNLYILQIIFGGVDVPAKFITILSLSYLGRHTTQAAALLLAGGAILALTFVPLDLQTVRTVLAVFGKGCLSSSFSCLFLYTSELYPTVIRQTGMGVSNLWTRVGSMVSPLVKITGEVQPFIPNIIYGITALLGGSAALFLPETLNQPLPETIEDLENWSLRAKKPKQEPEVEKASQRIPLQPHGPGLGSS
# protocolText: Further OAT3 uptake inhibition assay (Table 2)
# Assay type: cell-based
# testSettings: 10 μM PAH; compound 0.03-10 μM; read-out: OAT3 inhibition substrate = PAH (IC50)
Entry type: numeric. Quantity: pIC50, the -log10 of concentration in molar units.

// query pIC50 value for entry O=S(=O)(c1ccc(-n2cn[nH]c2=S)cc1)c1ccc(Cl)c(C(F)(F)F)c1 [Compound 1]
// result 6.60

// query pIC50 value for entry CSc1nncn1-c1ccc(S(=O)(=O)c2ccc(Cl)c(C(F)(F)F)c2)cc1 [Compound 26]
// result 5.12

// query pIC50 value for entry O=S(=O)(c1ccc(-n2cn[nH]c2=S)c(N2CCOCC2)c1)c1ccc(Cl)c(C(F)(F)F)c1 [Compound 2]
// result 5.87
